Assign inhibition at 48 h to each entry below.
Run description: Cytotoxicity against human LO2 cells assessed as growth inhibition up to 20 uM after 48 hrs by MTT assay
Assay type: cell-based, L02
Condition info: read-out: GI
Param answer (str): number followed by unit.

Name the reported inhibition at 48 h value associated with the compound CC(C)NCc1cc(-c2ccccc2F)n2c1cnc1cc(Cl)ccc12
76.4%

Query Fc1ccccc1-c1cc(CNCCc2ccc(Br)cc2)c2cnc3cc(Cl)ccc3n12 next
40.1%

Check Fc1ccccc1-c1cc(CNCc2ccccc2)c2cnc3cc(Cl)ccc3n12 too.
43.7%

For Fc1ccccc1-c1cc(CNCc2ccccc2)c2cnc3cc(Br)ccc3n12 then?
5.38%

Same lookup for CCCCNCc1cc(-c2ccccc2F)n2c1cnc1cc(Br)ccc12 , please.
68.7%

Now the compound Fc1ccccc1-c1cc(CNCCc2ccc(Br)cc2)c2cnc3ccccc3n12
72.3%

Same for Fc1ccc2c(c1)ncc1c(CNCc3ccccc3)cc(-c3ccccc3F)n12
20.1%

Please do the same for COc1ccc(CCNCc2cc(-c3ccccc3F)n3c2cnc2cc(Cl)ccc23)cc1OC as well.
53.5%

Also need CCCNCc1cc(-c2ccccc2F)n2c1cnc1cc(Cl)ccc12 , thanks.
73.7%

Okay, and CCCCNCc1cc(-c2ccccc2F)n2c1cnc1cc(Cl)ccc12 ?
73.7%

Values compiled from ChEMBL document CHEMBL4118162.
